Data provenance: patent US8088925B2

Target: human factor Xa (Homo sapiens)
Sequence (P00742 235-488 limits assumed): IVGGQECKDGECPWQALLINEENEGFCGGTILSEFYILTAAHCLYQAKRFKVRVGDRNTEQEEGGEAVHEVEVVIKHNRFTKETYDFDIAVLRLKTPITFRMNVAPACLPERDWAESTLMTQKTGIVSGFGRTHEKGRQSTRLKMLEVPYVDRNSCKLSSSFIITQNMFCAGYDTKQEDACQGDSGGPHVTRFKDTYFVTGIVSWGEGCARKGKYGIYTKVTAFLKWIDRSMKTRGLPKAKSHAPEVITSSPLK
Sequence (P00742 41-179 partner limits assumed): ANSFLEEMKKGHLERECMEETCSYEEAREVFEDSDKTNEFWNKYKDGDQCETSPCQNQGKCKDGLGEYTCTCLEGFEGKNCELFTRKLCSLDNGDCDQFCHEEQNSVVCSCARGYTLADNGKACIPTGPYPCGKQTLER
pKi: −log10 of the molar value.
So basically: pKi at 8 or higher? That is yes. Lower than 8? That is no.

# SMILES DATA, CLASS
measured = [
    ("Cc1ccc(C(=O)NCCS(=O)(=O)NC2CCN(C(C)C)CC2)s1", "no"),
    ("CC(C)N1CCC(N(CCO)S(=O)(=O)CCNC(=O)c2ccc(Cl)s2)CC1", "yes"),
    ("Cc1cc(CN(C2CCN(C(C)C)CC2)S(=O)(=O)CCNC(=O)c2ccc(Cl)s2)no1", "yes"),
    ("CC(=O)N(C1CCN(C(C)C)CC1)S(=O)(=O)CCNC(=O)c1ccc(Cl)s1", "yes"),
    ("O=C(NCCS(=O)(=O)NC1CCN(C2CC2)CC1)c1ccc(Cl)s1", "no"),
    ("CC(C)N1CC(NS(=O)(=O)CCNC(=O)c2ccc(Cl)s2)C1", "no"),
    ("CC(C)N1CCC(NS(=O)(=O)CCNC(=O)c2ccc(Cl)cn2)CC1", "no"),
]
